# TARGET OR SYSTEM: LH-RH receptors (Rattus norvegicus)
# Sequence (P30969 whole entry): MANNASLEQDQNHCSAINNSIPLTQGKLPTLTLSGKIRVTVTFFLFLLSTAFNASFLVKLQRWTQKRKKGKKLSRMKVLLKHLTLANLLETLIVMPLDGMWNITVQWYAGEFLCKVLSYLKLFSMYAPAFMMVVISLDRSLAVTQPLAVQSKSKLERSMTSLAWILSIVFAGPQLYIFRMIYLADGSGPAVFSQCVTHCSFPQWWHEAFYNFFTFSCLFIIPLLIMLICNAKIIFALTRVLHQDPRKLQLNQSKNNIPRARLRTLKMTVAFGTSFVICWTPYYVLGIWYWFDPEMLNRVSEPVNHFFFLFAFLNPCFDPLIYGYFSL
# ASSAY NOTES: Stimulation of testosterone secretion in adult male rats after subcutaneous injection (agonist activity in vivo)
# Set-up: exert an agonist activity upon the LH-RH receptors in vivo; from tissue; host or cells: whole animal, adult male Sprague-Dawley rats; species or system Sprague-Dawley rats
# RECORDED CONDITIONS: Table 2; 10 ng/kg subcutaneous in PBS, blood two hours later, male Sprague-Dawley rats; vehicle 2.7 ± 0.3
Square brackets hold non-standard residues; d marks the D form. Peptide text beside a SMILES is read from it. d2Nal = N[C@H](Cc1ccc2ccccc2c1)C(=O)O; tBuAla = CC(C)(C)C[C@H](N)C(=O)O; pGlu = O=C1CC[C@@H](C(=O)O)N1
TEST READOUT: Total plasma testosterone (nmol/L)
The response must be a number in nmol/L with no trailing unit.

Answered cases to consult:
>  <MOLECULE>
CCNC(=O)[C@@H]1CCCN1C(=O)[C@H](CCCNC(=N)N)NC(=O)[C@H](CC(C)(C)C)NC(=O)[C@@H](C)NC(=O)[C@H](Cc1ccc(O)cc1)NC(=O)[C@H](CO)NC(=O)[C@H](Cc1c[nH]c2ccccc12)NC(=O)[C@H](Cc1c[nH]cn1)NC(=O)[C@@H]1CCC(=O)N1

>  <Total plasma testosterone, nmol/L>
33.8

$$$$
>  <MOLECULE>
CCNC(=O)[C@@H]1CCCN1C(=O)[C@H](CCCNC(=N)N)NC(=O)[C@H](CC(C)(C)C)NC(=O)[C@@H](Cc1ccccc1)NC(=O)[C@H](Cc1ccc(O)cc1)NC(=O)[C@H](CO)NC(=O)[C@H](Cc1c[nH]c2ccccc12)NC(=O)[C@H](Cc1c[nH]cn1)NC(=O)[C@@H]1CCC(=O)N1

>  <Total plasma testosterone, nmol/L>
23.5

$$$$

I'm curious: which Total plasma testosterone was measured for CCNC(=O)[C@@H]1CCCN1C(=O)[C@H](CCCNC(=N)N)NC(=O)[C@H](CC(C)C)NC(=O)[C@@H](CC(C)C)NC(=O)[C@H](Cc1ccc(O)cc1)NC(=O)[C@H](CO)NC(=O)[C@H](Cc1c[nH]c2ccccc12)NC(=O)[C@H](Cc1c[nH]cn1)NC(=O)[C@@H]1CCC(=O)N1 [Leuprorelin, reference compound] tested on LH-RH receptors (Rattus norvegicus)?
33.5

Item: CC(C)C[C@H](NC(=O)[C@@H](Cc1c[nH]c2ccccc12)NC(=O)[C@H](Cc1ccc(O)cc1)NC(=O)[C@H](CO)NC(=O)[C@H](Cc1c[nH]c2ccccc12)NC(=O)[C@H](Cc1c[nH]cn1)NC(=O)[C@@H]1CCC(=O)N1)C(=O)N[C@@H](CCCNC(=N)N)C(=O)N1CCC[C@H]1C(=O)NCC(N)=O [Tryptorelin, reference compound] Test system: LH-RH receptors (Rattus norvegicus) Read-out: Total plasma testosterone Value: ?
20.3

Provide value of Total plasma testosterone for this record tested with LH-RH receptors (Rattus norvegicus): `CCNC(=O)[C@@H]1CCCN1C(=O)[C@H](CCCNC(=N)N)NC(=O)[C@H](CC(C)(C)C)NC(=O)[C@@H](CC(C)C)NC(=O)[C@H](Cc1ccc(O)cc1)NC(=O)[C@H](CO)NC(=O)[C@H](Cc1c[nH]c2ccccc12)NC(=O)[C@H](Cc1c[nH]cn1)NC(=O)[C@@H]1CCC(=O)N1`
48.6

Please provide the recorded Total plasma testosterone for `CCNC(=O)[C@@H]1CCCN1C(=O)[C@H](CCCNC(=N)N)NC(=O)[C@H](CC(C)(C)C)NC(=O)[C@@H](Cc1c[nH]c2ccccc12)NC(=O)[C@H](Cc1ccc(O)cc1)NC(=O)[C@H](CO)NC(=O)[C@H](Cc1c[nH]c2ccccc12)NC(=O)[C@H](Cc1c[nH]cn1)NC(=O)[C@@H]1CCC(=O)N1` , tested on LH-RH receptors (Rattus norvegicus).
20.5

Lookup: Total plasma testosterone / LH-RH receptors (Rattus norvegicus) / C[C@@H](NC(=O)[C@H](Cc1ccc(O)cc1)NC(=O)[C@H](CO)NC(=O)[C@H](Cc1c[nH]c2ccccc12)NC(=O)[C@H](Cc1c[nH]cn1)NC(=O)[C@@H]1CCC(=O)N1)C(=O)N[C@@H](CC(C)(C)C)C(=O)N[C@@H](CCCNC(=N)N)C(=O)N1CCC[C@H]1C(=O)NCC(N)=O [Example 3] ([pGlu]HWSY[dA][tBuAla]RPG-NH2)
16.7

For LH-RH receptors (Rattus norvegicus), provide Total plasma testosterone of CC(C)C[C@@H](NC(=O)[C@H](Cc1ccc(O)cc1)NC(=O)[C@H](CO)NC(=O)[C@H](Cc1c[nH]c2ccccc12)NC(=O)[C@H](Cc1c[nH]cn1)NC(=O)[C@@H]1CCC(=O)N1)C(=O)N[C@@H](CC(C)(C)C)C(=O)N[C@@H](CCCNC(=N)N)C(=O)N1CCC[C@H]1C(=O)NCC(N)=O [Example 5] ([pGlu]HWSY[dL][tBuAla]RPG-NH2) please.
21.2

Return Total plasma testosterone measured with LH-RH receptors (Rattus norvegicus) given this molecule: CC(C)(C)C[C@H](NC(=O)[C@@H](Cc1ccc2ccccc2c1)NC(=O)[C@H](Cc1ccc(O)cc1)NC(=O)[C@H](CO)NC(=O)[C@H](Cc1c[nH]c2ccccc12)NC(=O)[C@H](Cc1c[nH]cn1)NC(=O)[C@@H]1CCC(=O)N1)C(=O)N[C@@H](CCCNC(=N)N)C(=O)N1CCC[C@H]1C(=O)NCC(N)=O [Example 13] ([pGlu]HWSY[d2Nal][tBuAla]RPG-NH2)
22.9

----------
# TARGET OR SYSTEM: LH-RH receptors (Rattus norvegicus)
# RECORDED CONDITIONS: 0.25 μg/rat s.c.
Square brackets hold non-standard residues; d marks the D form. Peptide text beside a SMILES is read from it. * marks the point of attachment. dPhe(4-Cl) = N[C@H](Cc1ccc(Cl)cc1)C(=O)O; d2Nal = N[C@H](Cc1ccc2ccccc2c1)C(=O)O; d(hCit) = NC(=O)NCCCC[C@@H](N)C(=O)O; Lys(iPr) = CC(C)NCCCC[C@H](N)C(=O)O; dCit = NC(=O)NCCC[C@@H](N)C(=O)O; tBuAla = CC(C)(C)C[C@H](N)C(=O)O; d3Pal = N[C@H](Cc1cccnc1)C(=O)O; Nicotinoyl = O=C(c1cccnc1)*
TEST READOUT: % of inhibition of ovulation

Take a look at these entries with their results.
>  <COMPOUND>
CC(=O)N[C@H](Cc1ccc2ccccc2c1)C(=O)N[C@H](Cc1ccc(Cl)cc1)C(=O)N[C@H](Cc1cccnc1)C(=O)N[C@@H](CO)C(=O)N[C@@H](Cc1ccc(O)cc1)C(=O)N[C@H](CCCNC(N)=O)C(=O)N[C@@H](CC(C)(C)C)C(=O)N[C@@H](CCCNC(=N)N)C(=O)N1CCC[C@H]1C(=O)N[C@H](C)C(N)=O [Example 16] (Ac-[d2Nal][dPhe(4-Cl)][d3Pal]SY[dCit][tBuAla]RP[dA]-NH2)

>  <RESULT>
20%

$$$$
>  <COMPOUND>
CC(=O)N[C@H](Cc1ccc2ccccc2c1)C(=O)N[C@H](Cc1ccc(Cl)cc1)C(=O)N[C@H](Cc1cccnc1)C(=O)N[C@@H](CO)C(=O)N[C@@H](CCCCNC(=O)c1cccnc1)C(=O)N[C@H](CCCCNC(=O)c1cccnc1)C(=O)N[C@@H](CC(C)(C)C)C(=O)N[C@@H](CCCCNC(C)C)C(=O)N1CCC[C@H]1C(=O)N[C@H](C)C(N)=O [Example 15] (Ac-[d2Nal][dPhe(4-Cl)][d3Pal]SK(Nicotinoyl)[dK](Nicotinoyl)[tBuAla][Lys(iPr)]P[dA]-NH2)

>  <RESULT>
60%

$$$$
>  <COMPOUND>
CC(=O)N[C@H](Cc1ccc2ccccc2c1)C(=O)N[C@H](Cc1ccc(Cl)cc1)C(=O)N[C@H](Cc1cccnc1)C(=O)N[C@@H](CO)C(=O)N[C@@H](Cc1ccc(O)cc1)C(=O)N[C@H](CCCNC(N)=O)C(=O)N[C@@H](CC(C)(C)C)C(=O)N[C@@H](CCCCNC(C)C)C(=O)N1CCC[C@H]1C(=O)N[C@H](C)C(N)=O [Example 17] (Ac-[d2Nal][dPhe(4-Cl)][d3Pal]SY[dCit][tBuAla][Lys(iPr)]P[dA]-NH2)

>  <RESULT>
80%

$$$$

Look at this compound and give its reported % of inhibition of ovulation. CC(=O)N[C@H](Cc1ccc2ccccc2c1)C(=O)N[C@H](Cc1ccc(Cl)cc1)C(=O)N[C@H](Cc1cccnc1)C(=O)N[C@@H](CO)C(=O)N[C@@H](Cc1ccc(O)cc1)C(=O)N[C@H](CCCCNC(N)=O)C(=O)N[C@@H](CC(C)(C)C)C(=O)N[C@@H](CCCCNC(C)C)C(=O)N1CCC[C@H]1C(=O)N[C@H](C)C(N)=O [Example 18] (Ac-[d2Nal][dPhe(4-Cl)][d3Pal]SY[d(hCit)][tBuAla][Lys(iPr)]P[dA]-NH2)
20%
